target entity: Bromodomain testis-specific protein (Homo sapiens, UniProt Q58F21)
assay explanation: Inhibition of BRDT BD1 (unknown origin) using biotinylated tetra-acetylated H4 peptide SGRG-K(Ac)-GG-K(Ac)-GLG-K(Ac)-GGA-K(Ac)-RHRK-Biotin as substrate incubated for 1 hr by TR-FRET assay
quantity name: pIC50
A value of pIC50 is the negative decimal logarithm of a concentration given in moles per litre.

Problem: Which pIC50 value belongs to `Cc1cc(F)cc(C)c1Oc1ccc(C(C)(C)O)cc1-c1cn(C)c(=O)cc1NCC(=O)N1CCOCC1` ?
Result: 5.36

====

target entity: Bromodomain-containing protein 3 (Homo sapiens)
Sequence (Q15059 whole entry): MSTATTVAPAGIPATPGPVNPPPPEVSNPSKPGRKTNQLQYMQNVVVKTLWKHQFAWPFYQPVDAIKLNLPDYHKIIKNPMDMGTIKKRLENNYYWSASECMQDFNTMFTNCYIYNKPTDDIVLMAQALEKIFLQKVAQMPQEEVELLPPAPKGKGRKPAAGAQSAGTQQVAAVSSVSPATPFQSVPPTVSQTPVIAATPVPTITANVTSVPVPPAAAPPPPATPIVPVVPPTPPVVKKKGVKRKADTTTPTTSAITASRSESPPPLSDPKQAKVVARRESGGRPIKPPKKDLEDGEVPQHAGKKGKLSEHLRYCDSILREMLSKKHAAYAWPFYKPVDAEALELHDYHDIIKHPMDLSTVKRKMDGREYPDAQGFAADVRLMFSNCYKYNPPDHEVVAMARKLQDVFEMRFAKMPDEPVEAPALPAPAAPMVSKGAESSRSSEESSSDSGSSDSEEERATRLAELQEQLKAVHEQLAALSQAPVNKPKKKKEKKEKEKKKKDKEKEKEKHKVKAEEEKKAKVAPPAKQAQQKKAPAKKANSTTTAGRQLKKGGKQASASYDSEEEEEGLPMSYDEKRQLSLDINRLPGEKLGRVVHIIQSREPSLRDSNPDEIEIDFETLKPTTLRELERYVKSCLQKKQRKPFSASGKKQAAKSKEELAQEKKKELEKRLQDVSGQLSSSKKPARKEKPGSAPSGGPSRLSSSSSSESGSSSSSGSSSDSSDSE
assay explanation: Inhibition of BRD3 BD2 (unknown origin) using biotinylated tetra-acetylated H4 peptide SGRG-K(Ac)-GG-K(Ac)-GLG-K(Ac)-GGA-K(Ac)-RHRK-Biotin as substrate incubated for 1 hr by TR-FRET assay
quantity name: IC50

Problem: Fill in the recorded IC50 for this compound, with Bromodomain-containing protein 3 (Homo sapiens) as test system: `Cc1cc(F)cc(C)c1Oc1ccc(C(C)(C)O)cc1-c1cn(C)c(=O)cc1NCC(=O)N1CCOCC1`
Result: 15.9 nM

Data origin, for the record: ChEMBL document CHEMBL5537163
